Hey, just so you know, these numbers are from patent US8426447B2.

TARGET DESC: BACE1 (Homo sapiens, UniProt P56817)
Sequence (P56817 46-501, species assumed): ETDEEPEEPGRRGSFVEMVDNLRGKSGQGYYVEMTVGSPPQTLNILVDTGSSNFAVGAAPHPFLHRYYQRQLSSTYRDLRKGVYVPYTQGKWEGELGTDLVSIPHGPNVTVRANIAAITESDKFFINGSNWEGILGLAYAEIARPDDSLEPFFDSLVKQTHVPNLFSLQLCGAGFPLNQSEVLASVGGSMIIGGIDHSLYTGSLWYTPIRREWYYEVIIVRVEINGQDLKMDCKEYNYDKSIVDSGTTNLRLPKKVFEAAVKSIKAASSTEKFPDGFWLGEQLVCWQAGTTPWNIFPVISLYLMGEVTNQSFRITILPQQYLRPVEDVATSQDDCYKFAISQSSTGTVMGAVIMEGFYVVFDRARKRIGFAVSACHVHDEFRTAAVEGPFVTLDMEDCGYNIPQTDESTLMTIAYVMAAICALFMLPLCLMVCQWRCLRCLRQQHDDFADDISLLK
EXPERIMENT: In Vitro Enzymatic BACE FRET (Fluorescence Resonance Energy Transfer) Assay
Assay type: biochemical
SETTINGS: in vitro BACE FRET enzyme assay, IC50 class symbols; read-out: BACE1 FRET assay
pIC50: −log10 of the molar value.
MEASURE NAME: pIC50

> print(dat)
                                    compound                           target.desc  measure.name  recorded.result
 1  Cc1ccc(-c2cnc3c(c2)[C@]2(COC(N)=N2)c2cc(-c4cccnc4F)ccc2O3)cn1 [compound 339]  BACE1 (Homo sapiens, UniProt P56817)         pIC50           > 7.00
 2  Cc1cnc(F)c(-c2ccc3c(c2)[C@@]2(COC(N)=N2)c2cc(C4CCOCC4)ncc2O3)c1 [compound 332]  BACE1 (Homo sapiens, UniProt P56817)         pIC50           > 7.00
 3  CC1(C#Cc2cnc3c(c2)[C@]2(COC(N)=N2)c2cc(-c4cccnc4)ccc2O3)COC1 [compound 315]  BACE1 (Homo sapiens, UniProt P56817)         pIC50           > 7.00
 4  CC(C)C[C@H]1CN(c2ccc3c(c2)[C@]2(COC(N)=N2)c2cc(-c4cccnc4)ccc2O3)CCO1 [compound 359]  BACE1 (Homo sapiens, UniProt P56817)         pIC50     6.00 to 7.00
 5  NC1=N[C@@]2(CO1)c1cc(-c3cccnc3F)ccc1Oc1ccc(Cl)nc12 [compound 392]  BACE1 (Homo sapiens, UniProt P56817)         pIC50     6.00 to 7.00
 6  CC1(C#Cc2cnc3c(c2)[C@]2(COC(N)=N2)c2cc(-c4cccc(Cl)c4)ccc2O3)COC1 [compound 314]  BACE1 (Homo sapiens, UniProt P56817)         pIC50           > 7.00
 7  CCOC(C)(C)C#Cc1cnc2c(c1)[C@]1(COC(N)=N1)c1cc(-c3cccnc3)ccc1O2 [compound 347]  BACE1 (Homo sapiens, UniProt P56817)         pIC50           > 7.00
 8  Cc1cncc(-c2ccc3c(c2)[C@@]2(COC(N)=N2)c2cc(C4CCOCC4)ncc2O3)c1 [compound 308]  BACE1 (Homo sapiens, UniProt P56817)         pIC50           > 7.00
 9  NC1=N[C@@]2(CO1)c1cc(-c3cncc(F)c3)ccc1Oc1cnc(C3=CCOCC3)cc12 [compound 368]  BACE1 (Homo sapiens, UniProt P56817)         pIC50           > 7.00
10  CC1(COc2cnc3c(c2)[C@]2(COC(N)=N2)c2cc(-c4c(F)cccc4F)ccc2O3)COC1 [compound 411]  BACE1 (Homo sapiens, UniProt P56817)         pIC50           > 7.00
11  COC(C)(C)COc1cnc2c(c1)[C@]1(COC(N)=N1)c1cc(-c3ccccc3)ccc1O2 [compound 350]  BACE1 (Homo sapiens, UniProt P56817)         pIC50           > 7.00
12  COc1ccc(-c2cnc3c(c2)[C@]2(COC(N)=N2)c2cc(OCC(C)(C)C#N)ccc2O3)cn1 [compound 341]  BACE1 (Homo sapiens, UniProt P56817)         pIC50           > 7.00
13  CC(C)(F)COc1cc(F)c2c(c1)[C@]1(COC(N)=N1)c1cc(-c3cccnc3)ccc1O2 [compound 381]  BACE1 (Homo sapiens, UniProt P56817)         pIC50           > 7.00
14  CC1(COc2cnc3c(c2)[C@]2(COC(N)=N2)c2cc(-c4cccc(F)c4F)ccc2O3)COC1 [compound 413]  BACE1 (Homo sapiens, UniProt P56817)         pIC50           > 7.00
15  NC1=N[C@@]2(CO1)c1cc(-c3cccnc3F)ccc1Oc1ncc(-c3ccncc3)cc12 [compound 403]  BACE1 (Homo sapiens, UniProt P56817)         pIC50           > 7.00
